testedOn: Sko1 (UniProt Q02100)
Sequence: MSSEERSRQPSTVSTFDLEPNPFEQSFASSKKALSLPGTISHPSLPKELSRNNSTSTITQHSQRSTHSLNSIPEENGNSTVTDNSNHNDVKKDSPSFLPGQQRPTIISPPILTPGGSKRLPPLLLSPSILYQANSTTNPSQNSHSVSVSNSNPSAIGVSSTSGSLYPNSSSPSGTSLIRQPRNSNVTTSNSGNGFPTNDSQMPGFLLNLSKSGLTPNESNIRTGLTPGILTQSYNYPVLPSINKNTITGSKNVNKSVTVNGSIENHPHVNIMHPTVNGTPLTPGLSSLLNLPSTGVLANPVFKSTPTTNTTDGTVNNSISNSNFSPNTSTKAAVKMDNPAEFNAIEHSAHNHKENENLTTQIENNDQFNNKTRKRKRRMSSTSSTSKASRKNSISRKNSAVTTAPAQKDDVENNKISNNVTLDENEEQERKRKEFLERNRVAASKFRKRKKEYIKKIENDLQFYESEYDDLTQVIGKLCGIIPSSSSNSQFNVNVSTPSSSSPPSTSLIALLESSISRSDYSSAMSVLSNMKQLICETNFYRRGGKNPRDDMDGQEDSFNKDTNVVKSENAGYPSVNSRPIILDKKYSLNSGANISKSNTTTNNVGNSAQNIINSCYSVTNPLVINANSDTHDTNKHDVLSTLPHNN
assayProcedure: PBM E-score (8-mer binding enrichment) (E-score (-0.5 to 0.5)); higher = stronger / more preferred TF binding
testContext: protein concentration: 200 nM; construct: GST-full length
Whole data set: some 33,000 sequences, median “E-score (-0.5 to 0.5)” near -0.032, cut for the highest 2% near 0.36. The list comes from a sample in which the highest values are over-represented; it also holds close analogues and randomly drawn sequences.
Categories are defined by ranges of PBM E-score, namely category 1 (below -0.03), category 2 (-0.03 to below 0.2), category 3 (0.2 or more)

monomerSequence	label
ATGACTCC	category 2
ATATTACA	category 2
CACGTTGA	category 3
CCGTGTCA	category 1
AAGTGTCT	category 1
CATACGCC	category 2
ACTTGAAA	category 2
ACCGAGGC	category 1
TTACAGAA	category 2
ACTGACGG	category 1
ACGATTCG	category 2
TAAGGGAA	category 2
CATGACGC	category 3
AAACGTCG	category 3
CTAACGTA	category 3
ACTGCGTC	category 3
ATCCGTCG	category 1
CTAACGAA	category 2
TCTGGCAA	category 1
GTAACGAA	category 3
ACGTGTCC	category 3
GATACGTA	category 3
AAATTACC	category 2
AAGTCGAC	category 2
CAATTACC	category 2
GTAACGCA	category 3
AATACGCG	category 3
AAATTACG	category 3
CTAGACTA	category 1
CGTAGGTC	category 3
ATCTTGCC	category 1
AGTGACCA	category 1
ACCTGCGC	category 1
CACCTTTC	category 1
AGTCGTCG	category 1
CGTCATGA	category 3
ATGACGCC	category 3
CAGTCTTC	category 1
TATCTGGA	category 1
TATGACGA	category 3
ATAACGAA	category 3
ATATTACG	category 3
AGTCGTCC	category 1
GGTCGTGA	category 2
CTACGTCC	category 3
AGTGACGA	category 3
GATACGAA	category 3
CAGATGGA	category 1
ACTGACGA	category 3
CCTGACGA	category 3
CTAACTTA	category 2
ATAGCCTA	category 1
AGCCCCCC	category 1
ACACGTGG	category 3
CGTCGTCA	category 3
GCACGTGC	category 3
AATACGAA	category 3
AATACGTG	category 3
GCACGTGA	category 3
CTTCAGCA	category 2
AATACGGA	category 2
ATGAGCGA	category 2
CCGTGTCG	category 1
ATACGTCG	category 3
ATAACGTA	category 3
AACCCACC	category 1
CAATTACA	category 2
GTAACGTA	category 3
ATGCAAAA	category 2
AGTCGTCA	category 3
ACGTGTCT	category 3
CCTCTGCA	category 1
CAATTACG	category 3
ACAGAGCA	category 1
CGTCGTCC	category 1
AAGGATCG	category 2
ATACGCCC	category 1
AATGACTA	category 2
ACACGGGG	category 1
CGAGCACA	category 2
CATACGTC	category 3
TATGACAA	category 3
CGCTAAAA	category 1
AGTCATGA	category 2
GACTGGCC	category 1
ACCTGTAT	category 1
CGTCCGAC	category 2
ACACGTGA	category 3
AATACGGG	category 1
AGTCGCGG	category 1

* * *

testedOn: Sko1 (UniProt Q02100)
Sequence: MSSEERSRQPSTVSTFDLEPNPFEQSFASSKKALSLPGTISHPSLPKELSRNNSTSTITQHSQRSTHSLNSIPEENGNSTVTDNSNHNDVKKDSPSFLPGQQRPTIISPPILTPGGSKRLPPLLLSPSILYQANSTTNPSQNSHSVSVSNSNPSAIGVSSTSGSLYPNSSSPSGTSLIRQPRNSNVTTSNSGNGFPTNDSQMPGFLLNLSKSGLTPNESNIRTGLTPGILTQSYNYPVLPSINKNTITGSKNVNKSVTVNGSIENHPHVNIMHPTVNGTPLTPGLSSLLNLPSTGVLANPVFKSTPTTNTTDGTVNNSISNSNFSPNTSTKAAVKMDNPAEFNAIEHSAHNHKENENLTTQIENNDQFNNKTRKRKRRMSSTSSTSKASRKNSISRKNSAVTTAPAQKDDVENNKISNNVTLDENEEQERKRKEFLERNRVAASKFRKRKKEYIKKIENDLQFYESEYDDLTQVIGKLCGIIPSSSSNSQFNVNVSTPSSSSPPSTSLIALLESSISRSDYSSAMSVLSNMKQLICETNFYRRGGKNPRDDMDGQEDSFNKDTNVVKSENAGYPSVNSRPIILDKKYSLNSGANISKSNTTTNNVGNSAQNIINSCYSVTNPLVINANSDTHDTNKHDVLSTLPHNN
assayProcedure: PBM E-score (8-mer binding enrichment) (E-score (-0.5 to 0.5)); higher = stronger / more preferred TF binding
testContext: protein concentration: 200 nM; construct: GST-full length
Over roughly 33,000 sequences, “E-score (-0.5 to 0.5)” has its median near -0.032; the highest 2% begin near 0.36. This is one part of a sample in which the highest values are shown more often than they occur.
Categories are defined by ranges of PBM E-score, namely low end (below 0.09), middle (0.09 to below 0.3), high end (0.3 or more)

monomerSequence	label
CATTACAC	middle
CATTACGC	high end
CGTCATAG	high end
AACGTCAT	high end
CCTCATAG	middle
GATTACAC	low end
GCCGTCAA	low end
AACGTCGT	middle
AGCGTCAC	middle
GACGTCTC	high end
AACGTCAC	high end
AACGTCCT	low end
AATTACAC	middle
ATGAAATG	low end
AACGTCTC	middle
AAGCATAG	low end
CGTCATAA	high end
GATTACCC	low end
AGTCATAC	middle
CACGTCTC	middle
CGTGCGGC	low end
AATTACGG	middle

* * *

testedOn: Sko1 (UniProt Q02100)
Sequence: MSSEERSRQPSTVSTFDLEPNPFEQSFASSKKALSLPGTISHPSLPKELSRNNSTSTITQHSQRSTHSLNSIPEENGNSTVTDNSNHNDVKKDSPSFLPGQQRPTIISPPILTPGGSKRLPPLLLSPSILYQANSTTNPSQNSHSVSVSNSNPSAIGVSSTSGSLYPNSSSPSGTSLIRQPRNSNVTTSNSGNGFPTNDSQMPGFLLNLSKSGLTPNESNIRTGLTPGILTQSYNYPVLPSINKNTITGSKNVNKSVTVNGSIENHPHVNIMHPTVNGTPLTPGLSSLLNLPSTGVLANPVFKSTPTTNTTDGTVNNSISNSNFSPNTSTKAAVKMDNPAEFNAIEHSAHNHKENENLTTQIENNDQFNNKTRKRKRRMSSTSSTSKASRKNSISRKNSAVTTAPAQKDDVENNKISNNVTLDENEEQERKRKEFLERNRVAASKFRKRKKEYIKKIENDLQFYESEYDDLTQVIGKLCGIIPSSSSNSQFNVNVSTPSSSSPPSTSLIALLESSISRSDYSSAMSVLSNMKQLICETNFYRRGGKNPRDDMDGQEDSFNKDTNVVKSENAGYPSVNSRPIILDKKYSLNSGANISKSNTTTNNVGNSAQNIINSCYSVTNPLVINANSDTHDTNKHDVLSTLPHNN
assayProcedure: PBM E-score (8-mer binding enrichment) (E-score (-0.5 to 0.5)); higher = stronger / more preferred TF binding
testContext: protein concentration: 200 nM; construct: GST-full length
Whole data set: some 33,000 sequences, median “E-score (-0.5 to 0.5)” near -0.032, cut for the highest 2% near 0.36. The list comes from a sample in which the highest values are over-represented; it also holds close analogues and randomly drawn sequences.
PBM E-score listing for selected sequences.
reportedMetric: PBM E-score

monomerSequence	testedOn	reportedValue
CGTGCGCA	Sko1 (UniProt Q02100)	0.205
CGTGCGTA	Sko1 (UniProt Q02100)	0.382
CCAAAACG	Sko1 (UniProt Q02100)	0.171
GAAATGGC	Sko1 (UniProt Q02100)	0.00268
ACTACGGA	Sko1 (UniProt Q02100)	-0.036
ACTACGAA	Sko1 (UniProt Q02100)	0.289
CCGATGAA	Sko1 (UniProt Q02100)	-0.198
CCTGCGTC	Sko1 (UniProt Q02100)	0.122
AGCCCAGG	Sko1 (UniProt Q02100)	-0.331
ATATCAAC	Sko1 (UniProt Q02100)	0.141
ACAACTAG	Sko1 (UniProt Q02100)	-0.00944
AGTGCGTG	Sko1 (UniProt Q02100)	0.152
ATAGCACG	Sko1 (UniProt Q02100)	-0.0293
AGTGCGTC	Sko1 (UniProt Q02100)	0.225
AACCATAT	Sko1 (UniProt Q02100)	0.119
CGTGCGAC	Sko1 (UniProt Q02100)	0.0911
CACCACCG	Sko1 (UniProt Q02100)	-0.248
CGTCTGCC	Sko1 (UniProt Q02100)	-0.00999
ATCACCAA	Sko1 (UniProt Q02100)	0.0298
GGTGCGTA	Sko1 (UniProt Q02100)	0.299
GGCCCCTA	Sko1 (UniProt Q02100)	-0.188
ATTGTGCA	Sko1 (UniProt Q02100)	0.076

Where do the numbers come from? From the supplement of paper PMC3334620.
